# assayMethodText: Half-life in OFA rat at 1 mg/kg, iv measured upto 24 hrs by HPLC/UV analysis
# Format: ADME, organism-based
# studyConditions: in vivo
recordedMetric: half-life (h)
Kindly provide the numeric value in h only, without the unit symbol.

For record `O=C(Nc1cccc(C(F)(F)F)c1)c1cccc2cc(Oc3cc(CO)ncn3)ccc12` the listed half-life is 2.5

* * *

# assayMethodText: Tmax in OFA rat at 3 mg/kg, po measured upto 24 hrs by HPLC/UV analysis
# Type: ADME, organism-based
# studyConditions: in vivo
recordedMetric: Tmax (h)
Numbers only; they are read as h.

Sample `O=C(Nc1cccc(C(F)(F)F)c1)c1cccc2cc(Oc3cc(CO)ncn3)ccc12` ; Tmax observed: 2

Cited source: ChEMBL document CHEMBL5252510
